# System: 324938-238-R-J1-PDC complex spheroid growth, % test/control;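 note: spheroids exposed to agents for seven days before viability read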
# ASSAY_NOTES: Anticancer human tumor 324938-238-R-J1-PDC patient-derived bladder carcinoma cell line growth inhibition [AhR]
# RUN_CONDITIONS: second compound 1 µM; first compound 0.1 µM; hits give low values
hey, just use 1 if measured viability, T/C is less than 70%, otherwise -1

[[record]]
molecule = "Nc1ncn(C2CC(O)C(CO)O2)c(=O)n1 (stereo not drawn) + CC(CO)NC(=O)c1cc(-c2ccc(Cl)cc2)nn(-c2cnn(C)c2)c1=O"
assigned_category = -1

[[record]]
molecule = "COc1cc(C2c3cc4c(cc3C(OC3OC5COC(C)OC5C(O)C3O)C3COC(=O)C23)OCO4)cc(OC)c1O (stereo not drawn) + CC(CO)NC(=O)c1cc(-c2ccc(Cl)cc2)nn(-c2cnn(C)c2)c1=O"
assigned_category = -1

[[record]]
molecule = "COc1ccc([C@@H](O)c2cc(-c3ncnc4cc(N5CCOCC5)ccc34)c(F)cc2Cl)nn1 + Cc1cncc(-c2nc(NCCc3c[nH]c4ccccc34)c3ncn(C(C)C)c3n2)c1"
assigned_category = -1

[[record]]
molecule = "CC[C@@]1(O)C(=O)OCc2c1cc1n(c2=O)Cc2cc3c(CN(C)C)c(O)ccc3nc2-1 + Cc1ccccc1N=Nc1ccc(NC(=O)c2ccnn2C)c(C)c1"
assigned_category = 1

[[record]]
molecule = "CC(C)c1c(-c2ccccc2)nc2c(C#N)c[nH]n2c1=O + Cc1cncc(-c2nc(NCCc3c[nH]c4ccccc34)c3ncn(C(C)C)c3n2)c1"
assigned_category = -1

[[record]]
molecule = "CC1COCCN1c1cc(-c2ccnn2C)c2ccnc(-c3ccn[nH]3)c2n1 (stereo not drawn) + Cc1cncc(-c2nc(NCCc3c[nH]c4ccccc34)c3ncn(C(C)C)c3n2)c1"
assigned_category = -1

[[record]]
molecule = "Nc1ccccc1NC(=O)c1ccc(CNC(=O)OCc2cccnc2)cc1 + Cc1ccccc1N=Nc1ccc(NC(=O)c2ccnn2C)c(C)c1"
assigned_category = -1

[[record]]
molecule = "CC1COCCN1c1cc(-c2ccnn2C)c2ccnc(-c3ccn[nH]3)c2n1 (stereo not drawn) + CC(CO)NC(=O)c1cc(-c2ccc(Cl)cc2)nn(-c2cnn(C)c2)c1=O"
assigned_category = 1

[[record]]
molecule = "NS(=O)(=O)OCC1CC(n2ccc3c(NC4CCc5ccccc54)ncnc32)CC1O (stereo not drawn) + CC(CO)NC(=O)c1cc(-c2ccc(Cl)cc2)nn(-c2cnn(C)c2)c1=O"
assigned_category = -1

[[record]]
molecule = "CC(C)c1c(-c2ccccc2)nc2c(C#N)c[nH]n2c1=O + Cc1ccccc1N=Nc1ccc(NC(=O)c2ccnn2C)c(C)c1"
assigned_category = -1

[[record]]
molecule = "Cn1ncnc1C1c2n[nH]c(=O)c3cc(F)cc(c23)NC1c1ccc(F)cc1 (stereo not drawn) + CC(CO)NC(=O)c1cc(-c2ccc(Cl)cc2)nn(-c2cnn(C)c2)c1=O"
assigned_category = 1

[[record]]
molecule = "CC1COCCN1c1cc(-c2ccnn2C)c2ccnc(-c3ccn[nH]3)c2n1 (stereo not drawn) + Cc1ccccc1N=Nc1ccc(NC(=O)c2ccnn2C)c(C)c1"
assigned_category = 1

[[record]]
molecule = "O=C(C=Cc1cccc(S(=O)(=O)Nc2ccccc2)c1)NO + Cc1cncc(-c2nc(NCCc3c[nH]c4ccccc34)c3ncn(C(C)C)c3n2)c1"
assigned_category = -1


Hey, just so you know, these numbers are from PubChem BioAssay AID1918995.
